Overview of reported PAR-2 β-arrestin cell based assay IC50, 2 µM SLIGKV across a group of binders:
Biological target: T1, human PAR-2 (human, UniProt P55085 26-397)
T1 sequence: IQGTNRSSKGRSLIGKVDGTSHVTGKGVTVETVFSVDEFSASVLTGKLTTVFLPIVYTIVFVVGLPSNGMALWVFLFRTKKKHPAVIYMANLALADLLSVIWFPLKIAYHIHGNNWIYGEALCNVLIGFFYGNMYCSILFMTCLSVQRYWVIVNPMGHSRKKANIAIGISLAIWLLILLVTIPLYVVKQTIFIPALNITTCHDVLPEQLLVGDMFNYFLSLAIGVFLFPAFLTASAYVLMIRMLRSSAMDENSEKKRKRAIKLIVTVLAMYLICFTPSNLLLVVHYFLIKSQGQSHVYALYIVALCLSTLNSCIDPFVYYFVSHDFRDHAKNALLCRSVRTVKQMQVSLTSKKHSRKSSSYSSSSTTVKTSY
Test: cell-based or functional assay
State the value, then name its unit.

[
  {
    "binder": "P24E294 (antibody, human IgG4 S228P, kappa, V domains shown) VH: QVQLVQSGAEVKKPGSSVKVSCKASGFSLNSYAISWVRQAPGQGLEWMGVIWGNGNTYYAQKFQGRVTITADESTSTAYMELSSLRSEDTAVYYCARWRGYKDYPFDYWGQGTLVTVSS VL: EIVLTQSPATLSLSPGERATLSCRASQNIYKYLDWYQQKPGQAPRLLIYNTNSLATGIPARFSGSGSGRDFTLTISSLEPEDFAVYYCLQHNSGWTFGGGTKVEIKR",
    "result": "2.9 nM"
  },
  {
    "binder": "P24E922 (antibody, human IgG4 S228P, kappa, V domains shown) VH: QVQLVQSGAEVKKPGSSVKVSCKASGFSLSSYAISWVRQAPGQGLEWMGVIWGNGNTYYAQKFQGRVTITADESTSTAYMELSSLRSEDTAVYYCARWRGWKDYPFDYWGQGTLVTVSS VL: EIVLTQSPATLSLSPGERATLSCRASQNIYKWLDWYQQKPGQAPRLLIYNAYSLATGIPARFSGSGSGRDFTLTISSLEPEDFAVYYCQQHNSGWTFGGGTKVEIKR",
    "result": "1.01 nM"
  }
]

// field: PAR-2 β-arrestin cell based assay IC50, 2 µM SLIGKV; key: P24E281 (antibody, human IgG4 S228P, kappa, V domains shown) VH: QVQLVQSGAEVKKPGSSVKVSCKASGFSLSSYGVIWVRQAPGQGLEWMGVIWGNGNTYYAQKFQGRVTITADESTSTAYMELSSLRSEDTAVYYCARWRGYKDYPFDYWGQGTLVTVSS VL: EIVLTQSPATLSLSPGERATLSCKASQNIYKYLDWYQQKPGQAPRLLIYNANSLATGIPARFSGSGSGRDFTLTISSLEPEDFAVYYCLQHNSGWTFGGGTKVEIKR ; value = 2.6 nM
